melting point: recorded values
# measurement context: a range is the spread between reports

stdin: Data request, read-out melting point, for COc1ccc(OC)c(C)c1
stdout: 15 to 20 °C

----------
# measurement context: a range is the spread between reports
melting point: recorded values

Here is how some compounds turned out for melting point.
structure as smiles: CCCCCCCCCCBr
value: -30 to -29 °C

structure as smiles: CC=CC=CCO
value: 30.5 to 31 °C

structure as smiles: Nc1cccc(C(=O)O)c1
value: 173 to 175 °C

stdin: Data request, read-out melting point, for O=c1cccccc1O
stdout: 50.8 to 53 °C

stdin: Data request, read-out melting point, for CC(=O)c1ccc(C(F)(F)F)cc1
stdout: 31 to 32 °C

stdin: Data request, read-out melting point, for Cc1cc(C)cc(C(C)(C)C)c1
stdout: -22 to -18 °C

stdin: Data request, read-out melting point, for NC(=O)c1cccs1
stdout: 181 to 182 °C

stdin: Data request, read-out melting point, for CC1(C)C(=O)NC(=O)N1CO
stdout: 100 to 105 °C

stdin: Data request, read-out melting point, for COC(=O)c1ccc(C=O)cc1
stdout: 60 to 61 °C

stdin: Data request, read-out melting point, for N#Cc1cc(Cl)ccc1N
stdout: 96 to 97 °C

stdin: Data request, read-out melting point, for CCOC(=O)C(NC(C)=O)C(=O)OCC
stdout: 96.3 to 98 °C

stdin: Data request, read-out melting point, for Cc1ccc(C)n1-c1ccccc1
stdout: 49.5 to 50 °C

stdin: Data request, read-out melting point, for O=c1cc(CO)occ1O
stdout: 154 °C

stdin: Data request, read-out melting point, for c1ccc(C(=C(c2ccccc2)c2ccccc2)c2ccccc2)cc1
stdout: 224 to 225 °C

stdin: Data request, read-out melting point, for CCc1cccc(CC)c1
stdout: -84 to -83.9 °C

stdin: Data request, read-out melting point, for CS(C)(=O)=O
stdout: 109 to 110 °C

The origin of these recorded values is a melting point compilation (Tetko et al.).
